// reported growth inhibition per item
Assay: NCI Yeast Anticancer Drug Screen. Data for the rad50 strain (AID 155);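 further: 0% = growth of vehicle-only cultures of the same strain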
Settings: S. cerevisiae rad50 strain growth inhibition, active compounds read high; at 50.0 µM unless noted
About 79,000 compounds went through this panel and 15% of them were active in at least one assay; those are over-represented in the sample as a whole.
Reported endpoint: growth inhibition (%)

>  <Compound>
Nc1nc(Cl)c(C=O)c(NCC2(CO)CC(CCc3ccccc3)C2)n1 (stereo not drawn)

>  <Quantity unit>
%

>  <Measured result>
15.4

$$$$
>  <Compound>
CC1(C)CSCC(C)(C)C(=N/N)/C1=N\N

>  <Quantity unit>
%

>  <Measured result>
6.95

$$$$
>  <Compound>
COc1ccc(/C=C/C(=O)O)c(OC)c1

>  <Quantity unit>
%

>  <Measured result>
1.25

$$$$
>  <Compound>
CN(C(=O)CCC1OCCO1)c1cc(N)ccc1OCc1ccccc1

>  <Quantity unit>
%

>  <Measured result>
15.3

$$$$
>  <Compound>
CCN(CC)c1ccc2cc(C(=O)NCc3ccccc3)c(=N)oc2c1

>  <Quantity unit>
%

>  <Measured result>
9.7

$$$$
>  <Compound>
C=CCONC(=O)c1ccc(Cl)cc1

>  <Quantity unit>
%

>  <Measured result>
0.5

$$$$
>  <Compound>
COc1ccc2c(c1)c(COC(C)=O)c(C)c[n+]2[O-]

>  <Quantity unit>
%

>  <Measured result>
25.1

$$$$
>  <Compound>
N#Cc1c(C(F)(F)F)cc(-c2cccs2)nc1SC(C(=O)Nc1cc(C(F)(F)F)cc(C(F)(F)F)c1)c1ccccc1 (stereo not drawn)

>  <Quantity unit>
%

>  <Measured result>
13.6

$$$$
>  <Compound>
S=c1[nH]nc(-c2n[nH]c3ccccc23)o1

>  <Quantity unit>
%

>  <Measured result>
3.3

$$$$
>  <Compound>
CCN(CC)Cc1c(/C=C\c2cc(OC)c(OC)c(OC)c2)ccc(OC)c1O

>  <Quantity unit>
%

>  <Measured result>
-7.05

$$$$
>  <Compound>
CCCn1c(C)nc2c([N+](=O)[O-])cc(C)cc21

>  <Quantity unit>
%

>  <Measured result>
-4.2

$$$$
>  <Compound>
O=C(OCCCl)c1ccc(Cl)c(Cl)c1

>  <Quantity unit>
%

>  <Measured result>
5.75

$$$$
>  <Compound>
COc1ccccc1NC(=O)C1=C(C)NC(C)=C(C(=O)Nc2ccccc2OC)C1c1ccc(C)cc1

>  <Quantity unit>
%

>  <Measured result>
12.7

$$$$
